This collection of values is drawn from PubChem BioAssay AID588852.

# EXPERIMENTAL_SYSTEM: Muscarinic acetylcholine receptor M1 (Homo sapiens)
# EXPERIMENTAL_PROTOCOL: CHRM1 blockers of acetylcholine calcium response – CHO-K1 cells, Fluo-8 calcium fluorescence, 1536-well, primary screen (AID 588852);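 also: peak over basal fluorescence ratio during 140 s after agonist addition; 0% = ACh EC80 plus DMSO and 100% = DMSO alone without agonist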
# RECORDED_CONDITIONS: CHO-K1 hM1, Fluo-8 calcium fluorescence, ACh EC80 antagonist; at 3 µM
In all, about 360,000 compounds went through this assay and about 4,600 (1.3%) were called active.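 The calls were made as follows: active = percent inhibition above its own plate's cutoff, namely the mean of that plate's compound wells plus 3 SD; inactive = the rest.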 For the sample, actives were picked, then their nearest neighbours and some compounds at random.
Form entry, call: pick from active, inactive

Use the examples below as a reference point.
molecule=CCOC1=C2[C@H]([C@H]3C(=O)N(c4ccccc4)C(=O)[C@H]3C1)[C@@H](c1ccccc1)N(S(=O)(=O)c1ccc(C)cc1)[C@H]2c1ccccc1 experimental_system="Muscarinic acetylcholine receptor M1 (Homo sapiens)" classification=inactive
molecule="CC(C)(C)S(=O)N1Cc2cc(C(=O)NCCCN3CCOCC3)nc(-c3cccc(-c4cc5ccccc5o4)c3)c2[C@H]1CCO (stereo partly specified)" experimental_system="Muscarinic acetylcholine receptor M1 (Homo sapiens)" classification=inactive
molecule=CCOC(=O)c1ccc(NC(=O)CS(=O)(=O)c2cn(CC)c3ccccc23)cc1 experimental_system="Muscarinic acetylcholine receptor M1 (Homo sapiens)" classification=inactive

Problem: Would you mind telling me which call this test gave `O=C(C=CC(=O)Nc1ccc(F)cc1F)Nc1ccc(F)cc1F` ?
Solution: inactive

Problem: Would you mind telling me which call this test gave `CN(C)Cc1ccc(F)cc1Sc1cc(Cl)ccc1Cl` ?
Solution: active

Problem: Would you mind telling me which call this test gave `CNS(=O)(=O)c1ccc(N2CCCC2=O)c([N+](=O)[O-])c1` ?
Solution: inactive

---

# EXPERIMENTAL_SYSTEM: Muscarinic acetylcholine receptor M1 (Homo sapiens) (UniProt P11229)
# Sequence (P11229 whole entry, looked up): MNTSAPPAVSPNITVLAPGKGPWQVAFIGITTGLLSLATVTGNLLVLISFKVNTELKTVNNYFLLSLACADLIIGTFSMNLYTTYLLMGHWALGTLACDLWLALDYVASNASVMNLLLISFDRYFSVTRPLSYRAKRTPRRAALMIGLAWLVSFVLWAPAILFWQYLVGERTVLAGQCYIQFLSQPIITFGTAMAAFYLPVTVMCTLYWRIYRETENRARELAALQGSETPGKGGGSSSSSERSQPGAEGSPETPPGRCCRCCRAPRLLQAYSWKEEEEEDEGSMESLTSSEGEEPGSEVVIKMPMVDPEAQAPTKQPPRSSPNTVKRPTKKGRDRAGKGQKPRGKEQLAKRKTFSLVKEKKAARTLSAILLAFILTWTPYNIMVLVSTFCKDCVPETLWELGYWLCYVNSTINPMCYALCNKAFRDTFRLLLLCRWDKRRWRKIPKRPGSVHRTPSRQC
# EXPERIMENTAL_PROTOCOL: CHRM1 blockers of acetylcholine calcium response – CHO-K1 cells, Fluo-8 calcium fluorescence, 1536-well, primary screen (AID 588852)
# RECORDED_CONDITIONS: CHO-K1 hM1, Fluo-8 calcium fluorescence, ACh EC80 antagonist; at 3 µM
The campaign covered roughly 360,000 compounds. About 4,600 (1.3%) were called active.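 The calls were made as follows: active = percent inhibition above its own plate's cutoff, namely the mean of that plate's compound wells plus 3 SD; inactive = the rest.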 Only a selection was taken, and actives are over-represented in it overall.
Form entry, call: pick from T = active, F = inactive

molecule=COc1ccc(C(=O)NC(=S)NC2CCCCC2)cc1 experimental_system="Muscarinic acetylcholine receptor M1 (Homo sapiens) (UniProt P11229)" classification=F

Problem: Would you mind telling me which call this test gave CC(C)C1CC2=C(C(=O)OC(C)(C)O2)C(c2ccc(F)cc2)O1 (stereo unspecified) ?
Solution: F

---

# EXPERIMENTAL_SYSTEM: Muscarinic acetylcholine receptor M1 (Homo sapiens) (UniProt P11229)
# EXPERIMENTAL_PROTOCOL: CHRM1 blockers of acetylcholine calcium response – CHO-K1 cells, Fluo-8 calcium fluorescence, 1536-well, primary screen (AID 588852);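 also: peak over basal fluorescence ratio during 140 s after agonist addition; 0% = ACh EC80 plus DMSO and 100% = DMSO alone without agonist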
# RECORDED_CONDITIONS: CHO-K1 hM1, Fluo-8 calcium fluorescence, ACh EC80 antagonist; at 3 µM
Screen size: about 360,000 compounds; about 4,600 (1.3%) were called active.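 How the source made its calls: active means percent inhibition above its own plate's cutoff, namely the mean of that plate's compound wells plus 3 SD; inactive means the rest.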 The sample holds actives, similar compounds and a random draw of the others, so the mix is not that of the screen.
Form entry, call: pick from active, inactive

compound="Cc1ccc(S(=O)(=O)NCC(=O)N(CC(=O)NCC2CCCO2)c2cccc(F)c2)cc1 (stereo not given)" experimental_system="Muscarinic acetylcholine receptor M1 (Homo sapiens) (UniProt P11229)" classification=inactive

Problem: Would you mind telling me which call this test gave Cc1cccc(C)c1-n1nnnc1C(CCc1ccccc1)N1CCN(C/C=C/c2ccccc2)CC1 (stereo not given) ?
Solution: inactive

Problem: Would you mind telling me which call this test gave `CCN(CC)CCN(C(=O)c1cc(Cl)sc1Cl)c1nc2cc3c(cc2s1)OCO3` ?
Solution: active

Problem: Would you mind telling me which call this test gave `CCN(CC)CCN(C(=O)c1ccc2c(c1)CCCC2)c1nc2c(OC)cccc2s1` ?
Solution: inactive

Problem: Would you mind telling me which call this test gave `CC(=O)N1CCc2c(sc(NC(=O)CCS(=O)(=O)c3ccc(C)cc3)c2C(N)=O)C1` ?
Solution: inactive

---

# EXPERIMENTAL_SYSTEM: Muscarinic acetylcholine receptor M1 (Homo sapiens) (UniProt P11229)
# EXPERIMENTAL_PROTOCOL: CHRM1 blockers of acetylcholine calcium response – CHO-K1 cells, Fluo-8 calcium fluorescence, 1536-well, primary screen (AID 588852);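 also: peak over basal fluorescence ratio during 140 s after agonist addition; 0% = ACh EC80 plus DMSO and 100% = DMSO alone without agonist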
# RECORDED_CONDITIONS: CHO-K1 hM1, Fluo-8 calcium fluorescence, ACh EC80 antagonist; at 3 µM; hits give high values
The whole screen tested about 360,000 compounds, of which about 4,600 (1.3%) were called active. For the sample, actives were picked, then their nearest neighbours and some compounds at random.
REPORTED_ENDPOINT: inhibition (%)
Response body: numeric value in %, unit text excluded.

Please review the following examples before continuing.
compound="COc1ccc(C(C(=O)NC2CCCCC2)N(C(=O)Cc2c[nH]c3ccccc23)c2ccccc2)cc1OC (stereo not given)" readout_number=-2.89
compound=N#C[C@]1(S(=O)(=O)c2ccccc2)C[C@@H]2ON=C(c3cccc(Br)c3)[C@@H]2C1 readout_number=33.5
compound=Cc1ccc(-c2c3c(=O)n(C)c(=O)n(C)c3cn2-c2ccccc2O)cc1 readout_number=7.07

Problem: What value of measured inhibition is listed for `Cc1cc(OCC(=O)NC2CCN(C)CC2)ccc1[N+](=O)[O-]` ?
Solution: -1.71

Problem: What value of measured inhibition is listed for CCCNC(=S)NC1CC2CCCC(C1)N2CC(C)C (stereo not given) ?
Solution: 29.5

Problem: What value of measured inhibition is listed for `COc1cccc(-n2cc3c(c2-c2ccccc2)c(=O)n(C)c(=O)n3C)c1` ?
Solution: 36.7

Problem: What value of measured inhibition is listed for `COc1ccccc1S(=O)(=O)NCc1ccc(C(=O)N(C)Cc2ccc(F)cc2)cc1` ?
Solution: -14.8

Problem: What value of measured inhibition is listed for `O=C(Nc1cccc(Cl)c1N1CCOCC1)c1ccc2c(c1)OCCO2` ?
Solution: -6.53

Problem: What value of measured inhibition is listed for `Cc1ccccc1N1CCN(CCCOc2ccc3c(C)cc(=O)oc3c2)CC1` ?
Solution: 39.5

Problem: What value of measured inhibition is listed for `CCN1CCN(c2c(Cl)cccc2NC(=O)c2ccc(Br)o2)CC1` ?
Solution: 33

---

# EXPERIMENTAL_SYSTEM: Muscarinic acetylcholine receptor M1 (Homo sapiens)
# EXPERIMENTAL_PROTOCOL: CHRM1 blockers of acetylcholine calcium response – CHO-K1 cells, Fluo-8 calcium fluorescence, 1536-well, primary screen (AID 588852);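 also: peak over basal fluorescence ratio during 140 s after agonist addition; 0% = ACh EC80 plus DMSO and 100% = DMSO alone without agonist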
# RECORDED_CONDITIONS: CHO-K1 hM1, Fluo-8 calcium fluorescence, ACh EC80 antagonist; at 3 µM; hits give high values
The whole screen tested about 360,000 compounds, of which about 4,600 (1.3%) were called active. The full list was thinned out, with actives kept by preference.
REPORTED_ENDPOINT: inhibition (%)
Response body: numeric value in %, unit text excluded.

Please review the following examples before continuing.
compound=CC(=O)Nc1ccc(-c2cn3cccnc3n2)cc1 experimental_system="Muscarinic acetylcholine receptor M1 (Homo sapiens)" reported_endpoint=inhibition quantity_unit=% readout_number=-2.56
compound=Cn1c(SCC(=O)N2CCCCC2)nc2c(c1=O)SCC2 experimental_system="Muscarinic acetylcholine receptor M1 (Homo sapiens)" reported_endpoint=inhibition quantity_unit=% readout_number=17.4
compound=COC(=O)CCSc1nccn1Cc1ccccc1 experimental_system="Muscarinic acetylcholine receptor M1 (Homo sapiens)" reported_endpoint=inhibition quantity_unit=% readout_number=-11.6
compound=Cc1ccc2nc(-c3ccco3)c(Cc3cccc(Cl)c3)n2c1 experimental_system="Muscarinic acetylcholine receptor M1 (Homo sapiens)" reported_endpoint=inhibition quantity_unit=% readout_number=-5.65

Problem: What value of measured inhibition is listed for CN(C)Cc1ccccc1C1(O)c2ccccc2CSc2ccccc21 (stereo not drawn) ?
Solution: 20.6

Problem: What value of measured inhibition is listed for `CCc1noc(C)c1C(=O)N1CCCSC1=Nc1ccccc1OC` ?
Solution: 3.24

Problem: What value of measured inhibition is listed for `O=C(CS(=O)(=O)c1ccc(C(F)(F)F)cn1)NNC(=O)c1ccccc1` ?
Solution: 11.9

Problem: What value of measured inhibition is listed for `CN[C@H]1C[C@H]2c3cc(Oc4ccccc4C)ccc3CCN2C(=O)[C@H]1[C@H](C)O` ?
Solution: -8.68

Problem: What value of measured inhibition is listed for O=C(NC1CCCCC1)c1ccc2c(=O)n(CC3CCCO3)c(=O)[nH]c2c1 (stereo not drawn) ?
Solution: -13.8

Problem: What value of measured inhibition is listed for `Cc1c(CN2CCC(C)CC2)c(=O)n(-c2ccccc2)n1C` ?
Solution: 8.27

Problem: What value of measured inhibition is listed for `Cc1c(C(=O)OC(C)C)sc(NC(=O)c2cccnc2)c1C#N` ?
Solution: -3.46

Problem: What value of measured inhibition is listed for `CN(C)CC/C=C1\c2ccccc2CSc2ccccc21` ?
Solution: 96.1
